Biological target: T1, recombinant human lymphotoxin-α homotrimer (human LTα3) (human, UniProt P01374 35-205)
T1 construct: Coated on plates in the ELISAs; also called rhLTα; lymphotoxin-α3 trimer
T1 sequence (looked up): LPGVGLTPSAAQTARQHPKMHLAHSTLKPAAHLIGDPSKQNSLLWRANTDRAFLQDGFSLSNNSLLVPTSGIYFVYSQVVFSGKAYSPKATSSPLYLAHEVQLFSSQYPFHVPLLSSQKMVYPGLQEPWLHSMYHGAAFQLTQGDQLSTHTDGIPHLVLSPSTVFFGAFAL
Assay: BIACORE (rhLTα)
recorded-endpoint: pKd
Scale for pKd: -log10 of concentration given in mol/L; no unit attached.

Would you mind telling me what pKd value was observed for humanized 2C8.v2 (antibody, IgG1, V domains shown, also called Version 2) VH: EVQLVESGGGLVQPGGSLRLSCAASGYTFTSYVIHWVRQAPGKGLEWVGYNNPYNDGTNYNEKFKGRATISSDKSKNTAYLQMNSLRAEDTAVYYCSRPTMLPWFAYWGQGTLVTVSS VL: DIQMTQSPSSLSASVGDRVTITCRASQAVSSAVAWYQQKPGKAPKLQIYSASHRYTGVPSRFSGSGSGTDFTLTISSLQPEDFATYYCQQHYSTPWTFGQGTKVEIKR ?
9.70
